Where do these numbers come from? They come from ChEMBL document CHEMBL1795273.

target_system: Aldo-keto reductase family 1 member B1 (Rattus norvegicus)
test_protocol: Inhibition of ALR2 in Fischer-344 rat lens at 100 uM
Type: tissue-based
experimental_conditions: Lens of camera-type eye
Active and inactive are the calls of the source. The rule behind the calls is not given here.
measurement_kind: inhibition

Example compounds with recorded inhibition:
Query :: Which measured inhibition value corresponds to Cc1ccsc1/C=C1\CNC/C(=C\c2sccc2C)C1=O ?
Result :: 56%

Query :: Which measured inhibition value corresponds to O=C1/C(=C/c2ccc3[nH]ccc3c2)CNC/C1=C\c1ccc2[nH]ccc2c1 ?
Result :: inactive

Query :: Which measured inhibition value corresponds to O=C1/C(=C/c2cccs2)CNC/C1=C\c1cccs1 ?
Result :: 45.5%

Query :: Which measured inhibition value corresponds to Cc1ccc(/C=C2\CNC/C(=C\c3ccc(C)s3)C2=O)s1 ?
Result :: inactive

Query :: Which measured inhibition value corresponds to O=C1/C(=C/c2ccccc2)CNC/C1=C\c1ccccc1 ?
Result :: 49%

Others:
Query :: Which measured inhibition value corresponds to O=C1/C(=C/c2ccc(OCc3ccc(Br)cc3)cc2)CNC/C1=C\c1ccc(OCc2ccc(Br)cc2)cc1 ?
Result :: inactive

Query :: Which measured inhibition value corresponds to O=C1/C(=C/c2c[nH]cn2)CNC/C1=C\c1c[nH]cn1 ?
Result :: inactive

Query :: Which measured inhibition value corresponds to COc1cc(/C=C/C(=O)CC(=O)/C=C/c2ccc(O)c(OC)c2)ccc1O ?
Result :: 12%

Query :: Which measured inhibition value corresponds to O=C1/C(=C/c2c[nH]c3ccccc23)CNC/C1=C\c1c[nH]c2ccccc12 ?
Result :: 27.8%
